assay: Liver microsomes stability, rat; details: with NADPH, 2 μM, 0.5 mg/mL microsomes
Measured quantity: Remaining Percentage (%) after 60 min Rat
All answers are understood in %, so give the number only.

CN(C)CCc1c[nH]c2cccc(O)c12 [Psilocin, 4-hydroxy-N,N-dimethyltryptamine, reference compound]: 62.68

Ask: Return reported Remaining Percentage (%) after 60 min Rat; argument: `[2H]C([2H])([2H])N(C([2H])([2H])[2H])C([2H])([2H])C([2H])([2H])c1c[nH]c2cccc(OC(=O)CCCCCCC/C=C\C/C=C\CCCCC)c12`
Reply: 34.92

Ask: Return reported Remaining Percentage (%) after 60 min Rat; argument: `[2H]C([2H])([2H])N(C([2H])([2H])[2H])C([2H])([2H])C([2H])([2H])c1c[nH]c2cccc(OCc3ccccc3)c12`
Reply: 108.23

Ask: Return reported Remaining Percentage (%) after 60 min Rat; argument: `[2H]C([2H])([2H])N(C([2H])([2H])[2H])C([2H])([2H])C([2H])([2H])c1c[nH]c2cccc(O)c12`
Reply: 67.47

Reference source for all entries: patent US11591353B2
